# testName: C. albicans growth with fluconazole, confirmation, fluorescence, retest (AID 2467)
# Assay type: functional, cell-based
Active and inactive are the calls of the source. Cut-off read from the data, not from the text of the source: actives have a measured EC50 and inactives only a lower limit.
# Lookup of reported EC50 keyed by entry

INSERT INTO measurements (structuresmiles, result) VALUES
  ('Oc1ccc2ccccc2c1/C=N/Nc1nnc(-c2ncc[nH]2)c2ccccc12', '714 nM (active)');

Attention now shifts to the item below.
For the molecule "C=CC(C)(C)c1c(O)c(CC=C(C)C)c(O)c2c(=O)c3ccc(O)c(O)c3oc12" , what EC50 is on record?
> 38000 nM (not active)

====

# studyTarget: Heat shock factor protein 1 (Mus musculus, UniProt P38532)
# Sequence (P38532 whole entry): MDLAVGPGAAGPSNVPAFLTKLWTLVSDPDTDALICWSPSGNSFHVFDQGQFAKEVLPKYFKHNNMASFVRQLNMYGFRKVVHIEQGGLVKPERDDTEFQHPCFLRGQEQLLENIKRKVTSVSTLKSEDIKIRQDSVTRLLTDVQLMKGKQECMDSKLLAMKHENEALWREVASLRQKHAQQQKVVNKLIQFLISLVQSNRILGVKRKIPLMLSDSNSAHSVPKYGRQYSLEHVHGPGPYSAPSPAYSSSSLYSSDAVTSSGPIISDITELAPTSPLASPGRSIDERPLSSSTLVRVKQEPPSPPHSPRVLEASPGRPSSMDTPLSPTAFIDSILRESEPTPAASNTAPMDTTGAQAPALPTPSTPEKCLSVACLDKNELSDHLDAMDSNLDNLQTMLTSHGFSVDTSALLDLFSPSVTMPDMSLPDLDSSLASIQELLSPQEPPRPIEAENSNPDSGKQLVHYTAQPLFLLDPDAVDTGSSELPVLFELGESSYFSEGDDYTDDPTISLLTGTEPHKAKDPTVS
# testName: inhibition of MG132-induced HSE-luciferase signal, confirmation, cell-based, NIH3T3, luminescence, dose retest (AID 2382);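 note: NIH3T3 fibroblasts with HSF1-driven luciferase reporter stressed by proteasome inhibitor MG132; luminescence from HSF1-driven luciferase expression after 8 hours of MG132 stress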
# Type: functional
Active and inactive are the calls of the source. Rule as the data show it: actives have a measured EC50 and inactives only a lower limit.
EC50 by entry:

INSERT INTO measurements (structuresmiles, studytarget, result) VALUES
  ('CCOC(=O)c1ccc(NC(=O)Oc2ccccc2)cc1', 'Heat shock factor protein 1 (Mus musculus, UniProt P38532)', '> 195 µM (not active)');

Which EC50 is reported for this compound? "CC(C)(NC(=O)c1cc(Cl)c2ccccc2c1O)C(=O)O"
14.1 µM (active)

Could you share which EC50 value was measured for "COC(=O)C1=CN(c2ccc(F)c(F)c2)C=C(C(=O)OC)C1c1ccc([N+](=O)[O-])cc1" ?
> 195 µM (not active)

Need EC50, item "Cc1ccc(C(=O)Nc2sc(C)c(-c3ccccc3)c2C(N)=O)cc1[N+](=O)[O-]"
< 0.16 µM (active)
